assayed target: Histone deacetylase 2 (Homo sapiens)
Sequence (Q92769 whole entry): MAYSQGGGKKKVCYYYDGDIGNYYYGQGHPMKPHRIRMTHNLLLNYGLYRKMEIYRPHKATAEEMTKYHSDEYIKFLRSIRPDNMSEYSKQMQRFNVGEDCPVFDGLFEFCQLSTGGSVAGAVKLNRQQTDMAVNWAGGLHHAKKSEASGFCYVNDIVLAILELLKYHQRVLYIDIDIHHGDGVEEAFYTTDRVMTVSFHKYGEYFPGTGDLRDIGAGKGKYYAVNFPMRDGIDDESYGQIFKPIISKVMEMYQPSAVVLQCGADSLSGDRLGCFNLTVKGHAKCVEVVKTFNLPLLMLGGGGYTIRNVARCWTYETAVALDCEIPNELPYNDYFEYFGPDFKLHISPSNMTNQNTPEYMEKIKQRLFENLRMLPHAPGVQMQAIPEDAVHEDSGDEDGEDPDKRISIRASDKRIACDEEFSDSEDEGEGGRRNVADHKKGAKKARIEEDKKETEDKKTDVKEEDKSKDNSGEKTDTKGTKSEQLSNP
value kind: pIC50
Give bare numbers, as −log10 of the molar value.

[Q] State its pIC50: "CC(C)[C@@H]1NC(=O)[C@]2(C)CSC(=N2)c2coc(n2)CNC(=O)C[C@@H](/C=C/CCSSCC/C=C/[C@@H]2CC(=O)NCc3nc(co3)C3=N[C@@](C)(CS3)C(=O)N[C@@H](C(C)C)C(=O)O2)OC1=O"
[A] 5.89

* * *

List of pIC50 tested on UniProt Q13547.
Sequence (Q13547 whole entry): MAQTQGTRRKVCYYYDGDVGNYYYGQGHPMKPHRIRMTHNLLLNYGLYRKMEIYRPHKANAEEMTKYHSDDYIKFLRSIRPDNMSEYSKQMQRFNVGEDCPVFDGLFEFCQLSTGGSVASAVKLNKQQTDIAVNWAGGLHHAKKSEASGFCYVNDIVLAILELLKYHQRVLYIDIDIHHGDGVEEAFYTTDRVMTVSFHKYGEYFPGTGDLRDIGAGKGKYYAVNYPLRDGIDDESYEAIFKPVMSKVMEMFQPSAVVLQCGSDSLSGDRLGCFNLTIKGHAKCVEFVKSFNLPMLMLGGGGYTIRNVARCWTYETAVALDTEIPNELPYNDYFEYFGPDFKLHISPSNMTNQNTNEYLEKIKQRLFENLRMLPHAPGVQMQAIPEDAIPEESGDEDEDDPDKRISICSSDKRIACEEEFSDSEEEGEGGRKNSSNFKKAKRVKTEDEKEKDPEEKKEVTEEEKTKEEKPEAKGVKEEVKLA
Numbers only, as −log10 of the molar value.

substance_smiles=CC(C)[C@@H]1NC(=O)[C@]2(C)CSC(=N2)c2coc(n2)CNC(=O)C[C@@H](/C=C/CCSSCC/C=C/[C@@H]2CC(=O)NCc3nc(co3)C3=N[C@@](C)(CS3)C(=O)N[C@@H](C(C)C)C(=O)O2)OC1=O value_kind=pIC50 test_result=6.82

// switching to the query compound
[Q] State its pIC50: "CC(C)[C@@H]1NC(=O)[C@]2(C)CSC(=N2)c2coc(n2)CNC(=O)C[C@@H](/C=C/CCS)OC1=O"
[A] 8.36
